Biological target: beta-catenin/TCF4 engagement (Homo sapiens, UniProt P35222)
Construct: expressed in transfected cells; host or cells: HEK293
Sequence (P35222 whole entry): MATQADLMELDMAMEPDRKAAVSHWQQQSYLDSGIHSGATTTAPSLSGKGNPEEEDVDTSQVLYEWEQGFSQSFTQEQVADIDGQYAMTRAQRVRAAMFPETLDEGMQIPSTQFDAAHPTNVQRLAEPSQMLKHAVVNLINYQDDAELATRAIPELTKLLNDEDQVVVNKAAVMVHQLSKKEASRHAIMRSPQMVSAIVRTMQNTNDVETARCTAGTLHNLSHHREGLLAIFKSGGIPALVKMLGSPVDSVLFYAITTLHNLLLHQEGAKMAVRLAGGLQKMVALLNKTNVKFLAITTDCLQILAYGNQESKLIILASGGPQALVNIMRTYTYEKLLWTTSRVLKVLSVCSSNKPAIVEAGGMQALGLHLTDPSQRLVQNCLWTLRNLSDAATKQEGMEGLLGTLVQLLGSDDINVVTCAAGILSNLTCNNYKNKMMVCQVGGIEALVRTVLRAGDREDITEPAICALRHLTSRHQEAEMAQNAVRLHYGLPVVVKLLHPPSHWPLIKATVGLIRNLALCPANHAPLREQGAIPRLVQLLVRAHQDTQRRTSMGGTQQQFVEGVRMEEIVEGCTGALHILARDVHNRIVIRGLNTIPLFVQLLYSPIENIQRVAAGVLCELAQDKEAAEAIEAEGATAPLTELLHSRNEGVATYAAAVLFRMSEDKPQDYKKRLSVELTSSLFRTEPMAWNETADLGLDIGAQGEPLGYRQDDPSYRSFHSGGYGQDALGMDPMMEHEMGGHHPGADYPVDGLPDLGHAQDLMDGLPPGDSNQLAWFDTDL
Experiment: Nano-BRET target engagement assay (B-cat-Halo & TCF4-Luc in HEK293 cells)
Type: cell-based
Conditions: absolute IC50; read-out: NanoBRET Abs IC50
Parameter: IC50. Scope: all listed entries.
Give the number; µM is assumed, so skip it.

// solved cases for IC50 follow
COMPOUND: CCCc1cn(CCCC[C@H](NC(=O)[C@H](Cc2csc3ccccc23)NC(=O)[C@H](Cc2ccsc2)NC(=O)[C@]23CCN(C2)C(=O)OCCCC=CCCCC2(CCCC=CC[C@]4(CCCN4C(C)=O)C(=O)N[C@@H](CC(=O)O)C(=O)N[C@@H](CC(C)(C)C)C(=O)N2)C(=O)N[C@@H](CC(=O)O)C(=O)N[C@@H](CC(=O)O)C(=O)N[C@@H](C)C(=O)N[C@@H](C)C(=O)N[C@@H](Cc2ccccc2)C(=O)N[C@@H](CC(C)C)C(=O)N3)C(N)=O)nn1 (some centres unmarked)
ASSAY TARGET: beta-catenin/TCF4 engagement (Homo sapiens, UniProt P35222)
UNITS LABEL: µM
IC50: 13.5

COMPOUND: CC(=O)N1CCC[C@]12CC=CCCCC1(CCCC=CCCCOC(=O)N3CC[C@@](C(=O)N[C@@H](Cc4ccsc4)C(=O)N[C@@H](Cc4csc5ccccc45)C(=O)N[C@@H](CC(N)=O)C(=O)N[C@@H](CC(C)C)C(=O)N[C@@H](CC(C)C)C(=O)N[C@@H](CC(C)C)C(N)=O)(C3)NC(=O)[C@H](CC(C)C)NC(=O)[C@H](Cc3ccccc3)NC(=O)[C@H](C)NC(=O)[C@H](C)NC(=O)[C@H](Cc3cccc(C(=O)O)c3)NC(=O)[C@H](CC(=O)O)NC1=O)NC(=O)[C@H](CC(C)(C)C)NC(=O)[C@H](CC(=O)O)NC2=O (some centres unmarked) [I-2276]
ASSAY TARGET: beta-catenin/TCF4 engagement (Homo sapiens, UniProt P35222)
UNITS LABEL: µM
IC50: 4

COMPOUND: CC(=O)N1CCC[C@]12CC=CCCCC1(CCCC=CCCCOC(=O)N3CC[C@@](C(=O)N[C@@H](Cc4ccsc4)C(=O)N[C@@H](Cc4csc5ccccc45)C(=O)N[C@@H](CCC(N)=O)C(N)=O)(C3)NC(=O)[C@H](CC(N)=O)NC(=O)[C@H](Cc3ccccc3)NC(=O)[C@H](C)NC(=O)[C@H](C)NC(=O)[C@H](Cc3ccc(O)cc3)NC(=O)[C@H](CC(=O)O)NC1=O)NC(=O)[C@H](CC(C)(C)C)NC(=O)[C@H](CC(=O)O)NC2=O (some centres unmarked)
ASSAY TARGET: beta-catenin/TCF4 engagement (Homo sapiens, UniProt P35222)
UNITS LABEL: µM
IC50: 47.9

INPUT: # assay system beta-catenin/TCF4 engagement (Homo sapiens, UniProt P35222): give IC50 of CC(=O)N1CCC[C@]12CC=CCCCC1(CCCC=CCCCOC(=O)N3CC[C@@](C(=O)N[C@@H](Cc4ccsc4)C(=O)N[C@@H](Cc4cccc5ccccc45)C(=O)N[C@@H](CO)C(N)=O)(C3)NC(=O)[C@H](CC(C)C)NC(=O)[C@H](Cc3ccccc3)NC(=O)[C@H](C)NC(=O)[C@H](C)NC(=O)[C@H](CC(=O)O)NC(=O)[C@H](CC(=O)O)NC1=O)NC(=O)[C@H](CC(C)(C)C)NC(=O)[C@H](CC(=O)O)NC2=O (some centres unmarked)
OUTPUT: 23.1
